- assay_summary: The drug is tested on Z-004 corresponding to metagenome with ENA study accession number: PRJEB37062 and ENA sample accession number: ERS12561804 for biotransformation under anaerobic condition. The drug concentrations were measured over 9 timepoints collected between 0 and 24 hours of incubation by liquid-chromatography-coupled mass spectrometry (LC–MS); also: call rule not given here
- condition: 2 µM
measured_parameter: Bacterial Biotransformation

1) CCCCC1=NC2(CCCC2)C(=O)N1Cc1ccc(-c2ccccc2-c2nnn[nH]2)cc1 [IRBESARTAN]: Compound metabolized
2) CN(C)CC(c1ccc(O)cc1)C1(O)CCCCC1.O=C(O)CCC(=O)O (stereo not drawn) [DESVENLAFAXINE SUCCINATE]: Compound NOT metabolized
3) C=CCN1CC[C@]23c4c5ccc(O)c4O[C@H]2C(=O)CC[C@@]3(O)[C@H]1C5 [NALOXONE]: Compound NOT metabolized
4) CC(C)NCC(O)COc1ccc(CCOCC2CC2)cc1 (stereo not drawn) [BETAXOLOL]: Compound metabolized
5) CC(C)NCC(O)c1ccc(NS(C)(=O)=O)cc1 (stereo not drawn) [SOTALOL]: Compound NOT metabolized
6) COc1ccc2c(c1OC)C(=O)O[C@@H]2[C@H]1c2c(cc3c(c2OC)OCO3)CCN1C [NOSCAPINE]: Compound NOT metabolized
7) CCCc1nc2c(C)cc(-c3nc4ccccc4n3C)cc2n1Cc1ccc(-c2ccccc2C(=O)O)cc1: Compound metabolized
8) CC(C)(Oc1ccc(CCNC(=O)c2ccc(Cl)cc2)cc1)C(=O)O [BEZAFIBRATE]: Compound NOT metabolized
9) CN1CCN(C2=Nc3cc(Cl)ccc3Nc3ccccc32)CC1 [CLOZAPINE]: Compound NOT metabolized
10) CCc1nc(N)nc(N)c1-c1ccc(Cl)cc1 [PYRIMETHAMINE]: Compound NOT metabolized

Qu. // lookup Bacterial Biotransformation for Cc1cc2c(cc1S(N)(=O)=O)S(=O)(=O)CCC2
Ans. Compound NOT metabolized

Qu. // lookup Bacterial Biotransformation for CC(C)N(CCC(C(N)=O)(c1ccccc1)c1ccccn1)C(C)C.O=P(O)(O)O (stereo not drawn) [DISOPYRAMIDE PHOSPHATE]
Ans. Compound NOT metabolized

Qu. // lookup Bacterial Biotransformation for CN1CCN(C(=O)O[C@H]2c3nccnc3C(=O)N2c2ccc(Cl)cn2)CC1 [ESZOPICLONE]
Ans. Compound NOT metabolized

Qu. // lookup Bacterial Biotransformation for Cc1nc2n(c(=O)c1CCN1CCC(c3noc4cc(F)ccc34)CC1)CCCC2 [RISPERIDONE]
Ans. Compound metabolized

Qu. // lookup Bacterial Biotransformation for CCOC(=O)[C@H](CCc1ccccc1)N[C@@H](C)C(=O)N1[C@H](C(=O)O)C[C@H]2CCCC[C@@H]21 [TRANDOLAPRIL]
Ans. Compound metabolized

Qu. // lookup Bacterial Biotransformation for COc1ccc(CCN(C)CCCC(C#N)(c2ccc(OC)c(OC)c2)C(C)C)cc1OC (stereo not drawn)
Ans. Compound NOT metabolized

Qu. // lookup Bacterial Biotransformation for CCOc1ccc(NC(C)=O)cc1 [PHENACETIN]
Ans. Compound NOT metabolized

Qu. // lookup Bacterial Biotransformation for CCc1nn(CCCN2CCN(c3cccc(Cl)c3)CC2)c(=O)n1CCOc1ccccc1 [NEFAZODONE]
Ans. Compound NOT metabolized

====

- assay_summary: The drug is tested on WLS-086 corresponding to human gut metagenome with ENA study accession number: PRJEB37062 and ENA sample accession number: ERS12561752 for biotransformation under anaerobic condition. The drug concentrations were measured over 9 timepoints collected between 0 and 24 hours of incubation by liquid-chromatography-coupled mass spectrometry (LC–MS)
- condition: 2 µM
measured_parameter: Bacterial Biotransformation

Solved cases below.
1) O=C(O)CCc1nc(-c2ccccc2)c(-c2ccccc2)o1 [OXAPROZIN]: Compound metabolized
2) CNC(=C[N+](=O)[O-])NCCSCc1ccc(CN(C)C)o1 [RANITIDINE]: Compound NOT metabolized
3) CCCc1nc(C(C)(C)O)c(C(=O)OCc2oc(=O)oc2C)n1Cc1ccc(-c2ccccc2-c2nnn[nH]2)cc1 [OLMESARTAN MEDOXOMIL]: Compound metabolized
4) CCCc1nn(C)c2c(=O)[nH]c(-c3cc(S(=O)(=O)N4CCN(C)CC4)ccc3OCC)nc12.O=C(O)CC(O)(CC(=O)O)C(=O)O [SILDENAFIL CITRATE]: Compound metabolized

Qu. // lookup Bacterial Biotransformation for CCCCc1nc(Cl)c(CO)n1Cc1ccc(-c2ccccc2-c2nn[nH]n2)cc1 [LOSARTAN]
Ans. Compound metabolized

Qu. // lookup Bacterial Biotransformation for CCCCCOC(=O)Nc1nc(=O)n([C@@H]2O[C@H](C)[C@@H](O)[C@H]2O)cc1F [CAPECITABINE]
Ans. Compound metabolized

Qu. // lookup Bacterial Biotransformation for CN1CCN(CC/C=C2/c3ccccc3Sc3ccc(S(=O)(=O)N(C)C)cc32)CC1 [THIOTHIXENE]
Ans. Compound metabolized

Qu. // lookup Bacterial Biotransformation for CCN(CC)C(C)CN1c2ccccc2Sc2ccccc21 (centres undefined) [ETHOPROPAZINE]
Ans. Compound metabolized

Qu. // lookup Bacterial Biotransformation for Cc1cc2c(cc1S(N)(=O)=O)S(=O)(=O)CCC2
Ans. Compound NOT metabolized

====

- condition: human gut metagenome, 24 h, 2 µM
measured_parameter: Bacterial Biotransformation

1. OC(Cn1cncn1)(Cn1cncn1)c1ccc(F)cc1F: Compound metabolized
2. COC(=O)Nc1nc2ccc(C(=O)c3ccccc3)cc2[nH]1: Compound metabolized
3. CCCc1nc(C(C)(C)O)c(C(=O)OCc2oc(=O)oc2C)n1Cc1ccc(-c2ccccc2-c2nnn[nH]2)cc1: Compound NOT metabolized
4. CC(C)N(CCC(C(N)=O)(c1ccccc1)c1ccccn1)C(C)C.O=P(O)(O)O (centres undefined) [DISOPYRAMIDE PHOSPHATE]: Compound NOT metabolized
5. CCCCc1nc(Cl)c(CO)n1Cc1ccc(-c2ccccc2-c2nn[nH]n2)cc1: Compound metabolized
6. CNC(=C[N+](=O)[O-])NCCSCc1ccc(CN(C)C)o1: Compound NOT metabolized
7. Cc1cc2c(cc1S(N)(=O)=O)S(=O)(=O)CCC2: Compound NOT metabolized
8. O=C(Nc1ccccc1)OCC(CN1CCCCC1)OC(=O)Nc1ccccc1 (centres undefined): Compound NOT metabolized

# next molecule below
Qu. // lookup Bacterial Biotransformation for CN1CCN(CC/C=C2/c3ccccc3Sc3ccc(S(=O)(=O)N(C)C)cc32)CC1
Ans. Compound NOT metabolized

====

- assay_summary: The drug is tested on WLS-098 corresponding to human gut metagenome with ENA study accession number: PRJEB37062 and ENA sample accession number: ERS12561754 for biotransformation under anaerobic condition. The drug concentrations were measured over 9 timepoints collected between 0 and 24 hours of incubation by liquid-chromatography-coupled mass spectrometry (LC–MS)
- condition: 2 µM
measured_parameter: Bacterial Biotransformation

1. CN1C[C@H](C(=O)N[C@]2(C)O[C@@]3(O)[C@@H]4CCCN4C(=O)[C@H](Cc4ccccc4)N3C2=O)C=C2c3cccc4[nH]cc(c34)C[C@H]21.CN1C[C@H](C(=O)N[C@]2(C)O[C@@]3(O)[C@@H]4CCCN4C(=O)[C@H](Cc4ccccc4)N3C2=O)C=C2c3cccc4[nH]cc(c34)C[C@H]21.O=C(O)C(O)C(O)C(=O)O [ERGOTAMINE TARTRATE]: Compound metabolized
2. O=C(CCCN1CCC(O)(c2ccc(Cl)cc2)CC1)c1ccc(F)cc1: Compound metabolized
3. CN(C)C(=O)C(CCN1CCC(O)(c2ccc(Cl)cc2)CC1)(c1ccccc1)c1ccccc1 [LOPERAMIDE]: Compound metabolized
4. CN(C)CCc1c[nH]c2ccc(Cn3cncn3)cc12.O=C(O)c1ccccc1 [RIZATRIPTAN BENZOATE]: Compound NOT metabolized
5. CN1CCN(C2=Nc3cc(Cl)ccc3Nc3ccccc32)CC1: Compound metabolized
6. CC(C)NCC(O)c1ccc(NS(C)(=O)=O)cc1 (configuration not stated): Compound NOT metabolized

# next compound below
Qu. // lookup Bacterial Biotransformation for Fc1ccc([C@@H]2CCNC[C@H]2COc2ccc3c(c2)OCO3)cc1
Ans. Compound metabolized

====

- condition: human gut metagenome, 24 h, 2 µM
measured_parameter: Bacterial Biotransformation

1) Cc1ccc(-c2nc3ccc(C)cn3c2CC(=O)N(C)C)cc1 [ZOLPIDEM]: Compound NOT metabolized
2) CN(C)CC(c1ccc(O)cc1)C1(O)CCCCC1.O=C(O)CCC(=O)O (stereo not given) [DESVENLAFAXINE SUCCINATE]: Compound NOT metabolized
3) CCN(CC)CCNC(C(=O)OCCC(C)C)c1ccccc1.Cl.Cl (stereo not given): Compound metabolized
4) Fc1ccc([C@@H]2CCNC[C@H]2COc2ccc3c(c2)OCO3)cc1 [PAROXETINE]: Compound metabolized

Qu. // lookup Bacterial Biotransformation for COC1=CC(=O)C[C@@H](C)[C@]12Oc1c(Cl)c(OC)cc(OC)c1C2=O [GRISEOFULVIN]
Ans. Compound metabolized
